Measured Target: T1, human BCMA with a His tag (ACROBiosystems, Catalog No.: BCA-H522y) (human)
T1 construct: Bought His-tagged recombinant protein; also called huBCMA-His; Recombinant human BCMA
T1 chain: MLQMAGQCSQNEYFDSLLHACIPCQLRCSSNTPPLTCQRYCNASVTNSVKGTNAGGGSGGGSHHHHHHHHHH
Measurement Notes: SPR, Biacore T200
Parameter: log10(kon). Scope: all listed entries.
Readout: log10(kon) (log10 of the value in M⁻¹ s⁻¹)

- SCT-Aa13(h/h) (antibody, V domains shown, Full IgG format, chimeric: human IgG1 heavy chain constant region, human kappa light chain constant region) VH: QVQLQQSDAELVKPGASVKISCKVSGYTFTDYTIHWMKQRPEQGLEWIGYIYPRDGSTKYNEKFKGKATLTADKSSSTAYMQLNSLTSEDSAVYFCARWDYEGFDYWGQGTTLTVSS VL: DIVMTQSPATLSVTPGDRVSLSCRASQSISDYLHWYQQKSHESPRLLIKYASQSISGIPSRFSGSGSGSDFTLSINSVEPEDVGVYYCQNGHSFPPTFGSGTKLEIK: 6.51
- SCT-Aa12(m/m) (antibody, V domains shown, Full IgG format: mouse IgG1 heavy chain constant region, mouse kappa light chain constant region) VH: QVQLQQSDAELVKPGASVKISCKVSGYTFTDYTIHWMKQRPEQGLEWIGYIFPSDGSTKYNEKFKGKATLTADKSSSTAYMQLNSLTSDDSAVYFCARWDYEGFDYWGQGTTLTVSS VL: DIVMTQSPATLSVTPGDRVSLSCRASQSISDYLNWYQQKSHESPRLLIKYASQSISGIPSRFSGSGSGSDFTLSINSVEPEDVGVYYCQNGHSFPPTFGSGTKLEIK: 6.34
- SCT-Aa03(h/h) (antibody, V domains shown, Full IgG format, chimeric: human IgG1 heavy chain constant region, human kappa light chain constant region) VH: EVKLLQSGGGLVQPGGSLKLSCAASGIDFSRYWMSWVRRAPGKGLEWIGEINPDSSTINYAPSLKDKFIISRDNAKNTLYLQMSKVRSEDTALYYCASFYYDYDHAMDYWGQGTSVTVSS VL: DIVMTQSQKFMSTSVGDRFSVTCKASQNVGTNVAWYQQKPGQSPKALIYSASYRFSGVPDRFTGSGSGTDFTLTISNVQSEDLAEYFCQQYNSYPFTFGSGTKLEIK: 5.48
- SCT-Aa04(h/h) (antibody, V domains shown, Full IgG format, chimeric: human IgG1 heavy chain constant region, human kappa light chain constant region) VH: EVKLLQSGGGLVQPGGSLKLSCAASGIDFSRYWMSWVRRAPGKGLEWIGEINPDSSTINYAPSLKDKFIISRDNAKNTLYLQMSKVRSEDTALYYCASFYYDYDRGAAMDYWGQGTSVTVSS VL: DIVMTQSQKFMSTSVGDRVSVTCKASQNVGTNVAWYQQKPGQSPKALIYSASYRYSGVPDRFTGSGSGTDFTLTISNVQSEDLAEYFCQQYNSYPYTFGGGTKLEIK: 6.02
- SCT-Aa18(h/h) (antibody, V domains shown, Full IgG format, chimeric: human IgG1 heavy chain constant region, human kappa light chain constant region) VH: EVQLQQSGPELVKPGASVKISCKASGYTFISYVMHWVKQKPGQGLEWIGYIIPYNDGTKYNEKFKGKATLTSDKSSSTAYMELSSLTSEDSAVYYCAKWGNWDEGTWFPYWGQGTLVTVSA VL: DVLMTQTPLSLPVSLGDQASFSCRSSQSIVHSDGNTYLEWYLQKPGQSPKLLIYKISNRFSGVPDRFSGSGSGTDFTLKISRVEAEDLGVYYCFQGSHVPWTFGGGTKLEIK: 6.62
